Origin of values: patent US20240301067A1

Biological target: T1, Cynomolgus PD-1 extracellular domain, hFc tag (cynomolgus, UniProt B0LAJ3 25-170)
T1 construct: Bought; also called cynoPro1.ECD.hFc; cyno PD-1 ECD protein
T1 sequence (B0LAJ3 entry or part of it limits assumed): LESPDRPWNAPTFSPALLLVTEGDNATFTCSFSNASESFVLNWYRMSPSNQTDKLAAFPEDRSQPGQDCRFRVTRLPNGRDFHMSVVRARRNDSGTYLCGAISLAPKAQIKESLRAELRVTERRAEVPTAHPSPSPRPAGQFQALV
Assay: SPR Biacore 8K; PD-1-hFc captured on anti-human Fc chip, VHH injected; 1:1 fit
Protocol: To screen WBP3056 VHH antibodies from affinity maturation, koff to hPro1.ECD.hFc, mPro1.ECD.hFc and cynoPro1.ECD.hFc (AcrobioSystems) was detected by SPR assay using Biacore 8K. hPro1.ECD.hFc, mPro1.ECD.hFc or cynoPro1.ECD.hFc (AcrobioSystems) was captured on an anti-human IgG Fc antibody immobilized CM5 sensor chip. Each VHH antibody was injected over the sensor chip at a flow rate of 30 uL/min for an association phase of 120 s, followed by 150 s dissociation. […]
Would you kindly list Kd for each of these binders?
Report the figure in nM without appending any unit label.

Looking up AP17R1-2H2-Z1-R1-14F3 (VHH, not shown: his- and c-Myc-tag from vector pETbac) VHH: QVQLVESGGGVVQPGGSLRLSCAASDSIDSLVNMGWYRQAPGKQRELVALIAWYITHYADFVKGRFTISRDNSKNTLYLQMNSLRAEDTAVYYCYARNIIVDYWGQGTLVTVSS , I found its Kd recorded as 7.18

Looking up AP17R1-2H2-Z1-R1-29B2 (VHH, not shown: his- and c-Myc-tag from vector pETbac) VHH: QVQLVESGGGVVQPGGSLRLSCAASDSIDSLVNMGWYRQAPGKQRELVALIANYITHYADFVKGRFTISRDNSKNTLYLQMNSLRAEDTAVYYCYARNIRVDYWGQGTLVTVSS , I found its Kd recorded as 25.7

Looking up AP17R1-2H2-Z1-R1-14F1 (VHH, not shown: his- and c-Myc-tag from vector pETbac) VHH: QVQLVESGGGVVQPGGSLRLSCAASDSIDSLVNMGWYRQAPGKQRELVALIAYYITHYADFVKGRFTISRDNSKNTLYLQMNSLRAEDTAVYYCYARNIIVDYWGQGTLVTVSS , I found its Kd recorded as 8.98

Looking up AP17R1-2H2-Z1-R1-4D8 (VHH, not shown: his- and c-Myc-tag from vector pETbac) VHH: QVQLVESGGGVVQPGGSLRLSCAASDSIQSLVNMGWYRQAPGKQRELVALIANYITHYADFVKGRFTISRDNSKNTLYLQMNSLRAEDTAVYYCYARNIIVDYWGQGTLVTVSS , I found its Kd recorded as 26
